system: ACHN; experiment: NCI tumour cell line growth inhibition, 48 h
The source made the active and inactive calls. Rule as the data show it: active = GI50 up to about 1.1 µM and inactive = higher.

| molecule | GI50 |
| --- | --- |
| COc1cc(C2c3cc4c(cc3OC(NCCc3ccccc3)C2C)OCO4)cc(OC)c1OC (stereo not drawn) | 1.36 µM (inactive) |
| O=C(O)CN1CCNCCN(CC(=O)O)CCNCC1 | > 100 µM (inactive) |
| CN(CCNC(=O)c1nn(-c2ccc(Cl)cc2Cl)c2c1Cc1ccccc1-2)CCNC(=O)c1nn(-c2ccc(Cl)cc2Cl)c2c1Cc1ccccc1-2 | 4.53 µM (inactive) |
| CCOC(=O)/C1=C(\C)N(c2ccc(C)cc2)C(=O)c2ccccc2C(=O)c2c(OC(C)=O)ccc(OC(C)=O)c21 | 16.8 µM (inactive) |
| COc1ccc(C(=O)N2c3ccccc3N(C)n3cccc3C2CC(=O)O)cc1 (stereo not drawn) | > 100 µM (inactive) |
| S=C(S)NCCN1CCNCC1 | 36.7 µM (inactive) |
| CNS(=O)(=O)NNS(=O)(=O)c1ccc(Cl)cc1 | > 100 µM (inactive) |
| CCc1cccc(CC)c1NC(=O)CC1SC(N)=NC1=O (stereo not drawn) | > 100 µM (inactive) |
